// IC50 lookup, one value per entry
target.desc: recombinant human NF-kappaB-inducing kinase (NIK/MAP3K14) (Homo sapiens)
Sequence (Q99558 whole entry): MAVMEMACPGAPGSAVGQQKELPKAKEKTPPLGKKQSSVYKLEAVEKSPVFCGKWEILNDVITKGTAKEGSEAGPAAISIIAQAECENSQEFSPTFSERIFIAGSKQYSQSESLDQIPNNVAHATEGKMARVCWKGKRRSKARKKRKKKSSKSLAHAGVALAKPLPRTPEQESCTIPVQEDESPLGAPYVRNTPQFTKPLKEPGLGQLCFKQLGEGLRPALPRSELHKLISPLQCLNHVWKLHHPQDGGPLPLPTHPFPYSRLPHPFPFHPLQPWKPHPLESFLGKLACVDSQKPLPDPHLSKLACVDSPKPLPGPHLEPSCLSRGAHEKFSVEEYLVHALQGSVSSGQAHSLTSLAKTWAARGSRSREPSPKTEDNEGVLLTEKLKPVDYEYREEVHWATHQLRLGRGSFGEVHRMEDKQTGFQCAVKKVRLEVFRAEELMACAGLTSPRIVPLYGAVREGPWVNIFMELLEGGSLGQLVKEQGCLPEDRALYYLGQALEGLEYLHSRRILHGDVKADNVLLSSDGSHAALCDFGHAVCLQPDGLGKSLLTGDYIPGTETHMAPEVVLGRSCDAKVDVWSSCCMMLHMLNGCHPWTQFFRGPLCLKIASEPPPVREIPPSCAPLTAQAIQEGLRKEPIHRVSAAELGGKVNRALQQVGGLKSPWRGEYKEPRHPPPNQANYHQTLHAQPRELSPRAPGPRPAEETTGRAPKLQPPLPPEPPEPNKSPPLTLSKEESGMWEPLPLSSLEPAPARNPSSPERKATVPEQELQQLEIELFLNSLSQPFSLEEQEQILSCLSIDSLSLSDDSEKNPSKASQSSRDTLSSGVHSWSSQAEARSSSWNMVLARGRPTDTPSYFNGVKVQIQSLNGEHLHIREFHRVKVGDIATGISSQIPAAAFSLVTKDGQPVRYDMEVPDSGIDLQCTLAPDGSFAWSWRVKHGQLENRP
procedure.details: Inhibition of auto-phosphorylation of recombinant human NIK/MAP3K14 activity (AlphaScreen), Biological Assay A
Format: biochemical
measurement.setup: averaged values over all measurements on all batches
measured.quantity: IC50 (nM)

>>> df
                                    compound                               target_desc  readout_value
 0  Cc1c(CN2CC(C)OC(C)C2)cccc1Nc1nccc(-c2cc(C#N)c3c(c2)[C@@](C)(CO)CN3)n1 (stereo partly drawn) [Compound 197]  recombinant human NF-kappaB-inducing kinase (NIK/MAP3K14) (Homo sapiens)              6
 1  Cc1cc(C(=O)NCC2COC2)c(F)cc1Nc1nccc(-c2cc(C#N)c3c(c2)[C@@](C)(CO)CN3)n1 [Compound 187]  recombinant human NF-kappaB-inducing kinase (NIK/MAP3K14) (Homo sapiens)            3.2
 2  Cc1ccc(C#N)cc1Nc1nccc(-c2cc(C#N)c3c(c2)[C@@](C)(CNS(C)(=O)=O)CN3)n1 [Compound 212]  recombinant human NF-kappaB-inducing kinase (NIK/MAP3K14) (Homo sapiens)           25.1
 3  Cc1ccc(C#N)cc1Nc1nccc(-c2cc(C#N)c3c(c2)[C@@](C)(CO)CN3)n1 [Compound 131]  recombinant human NF-kappaB-inducing kinase (NIK/MAP3K14) (Homo sapiens)            1.3
 4  COc1ccc(Cl)cc1Nc1nccc(-c2cc(C#N)c3c(c2)C(C)(CO)CN3)n1 (stereo not drawn) [Compound 33]  recombinant human NF-kappaB-inducing kinase (NIK/MAP3K14) (Homo sapiens)           11.2
 5  CC1CN(Cc2ccc(Nc3nccc(-c4cc(C#N)c5c(c4)C(C)(CO)CN5)n3)cc2C(F)(F)F)CC(C)N1C (stereo not drawn) [Compound 50]  recombinant human NF-kappaB-inducing kinase (NIK/MAP3K14) (Homo sapiens)              3
 6  COc1cc(Nc2nccc(-c3cc(C#N)c4c(c3)C(C)(C)CN4)n2)c(F)c(OC)c1 [Compound 104]  recombinant human NF-kappaB-inducing kinase (NIK/MAP3K14) (Homo sapiens)             12
 7  Cc1cc(C2CCOCC2)c(C#N)cc1Nc1nccc(-c2cc(C#N)c3c(c2)[C@@](C)(CO)CN3)n1 [Compound 75]  recombinant human NF-kappaB-inducing kinase (NIK/MAP3K14) (Homo sapiens)            3.6
 8  Cc1ccc(C#N)cc1Nc1nccc(-c2cc(C#N)c3c(c2)[C@@](C)(COC(=O)CN)CN3)n1 [Compound 137]  recombinant human NF-kappaB-inducing kinase (NIK/MAP3K14) (Homo sapiens)              6
 9  Cc1ccc(C#N)cc1Nc1nccc(-c2cc(C#N)c3c(c2)[C@](C)(CO)CN3)n1 [Compound 65]  recombinant human NF-kappaB-inducing kinase (NIK/MAP3K14) (Homo sapiens)            4.1
10  CC(C)Oc1ccc(C(F)(F)F)cc1Nc1nccc(-c2cc(C#N)c3c(c2)C(C)(CO)CN3)n1 (stereo not drawn) [Compound 76]  recombinant human NF-kappaB-inducing kinase (NIK/MAP3K14) (Homo sapiens)            186
11  COc1cc(S(C)(=O)=O)ccc1Nc1nccc(-c2cc(C#N)c3c(c2)[C@@](C)(CO)CN3)n1 [Compound 73]  recombinant human NF-kappaB-inducing kinase (NIK/MAP3K14) (Homo sapiens)            2.2
12  Cc1ccc(C(=O)N(C)C)cc1Nc1nccc(-c2cc(C#N)c3c(c2)[C@@](C)(CO)CN3)n1 [Compound 160]  recombinant human NF-kappaB-inducing kinase (NIK/MAP3K14) (Homo sapiens)           11.2
13  CN(C)C(=O)c1ccc(Cl)cc1Nc1nccc(-c2cc(C#N)c3c(c2)C(C)(CO)CN3)n1 (stereo not drawn) [Compound 56]  recombinant human NF-kappaB-inducing kinase (NIK/MAP3K14) (Homo sapiens)            126
14  COc1cc(C(=O)NC2CCC(O)C2)c(Cl)cc1Nc1nccc(-c2cc(C#N)c3c(c2)C(C)(C)CN3)n1 (stereo not drawn) [Compound 115]  recombinant human NF-kappaB-inducing kinase (NIK/MAP3K14) (Homo sapiens)            4.9
